The reported measurements were obtained from paper PMC10142028.

Item-by-item account of solubility at 24 h
METHOD_NOTES: Drug solubility in water and in aqueous solution of TPGS
Assay type: physicochemical
RUN_PARAMETERS: water, thermodynamic from solid, water, room temperature, 24 h stirring; read-out: Drug solubility in water
Kindly answer with a numeric value in µM, unit omitted.

Answered examples (2):
[[record]]
mol = "C=CC[C@@H]1/C=C(\\C)C[C@H](C)C[C@H](OC)[C@H]2O[C@@](O)(C(=O)C(=O)N3CCCC[C@H]3C(=O)O[C@H](/C(C)=C/[C@@H]3CC[C@@H](O)[C@H](OC)C3)[C@H](C)[C@@H](O)CC1=O)[C@H](C)C[C@@H]2OC"
recorded_number = 0.2

[[record]]
mol = "CO[C@H]1C[C@@H]2CC[C@@H](C)[C@@](O)(O2)C(=O)C(=O)N2CCCC[C@H]2C(=O)O[C@H]([C@H](C)C[C@@H]2CC[C@@H](O)[C@H](OC)C2)CC(=O)[C@H](C)/C=C(\\C)[C@@H](O)[C@@H](OC)C(=O)[C@H](C)C[C@H](C)/C=C/C=C/C=C/1C"
recorded_number = 8.24


Attention now turns to another entry.
Qu. So what does the record say about solubility at 24 h for `CC[C@@H]1/C=C(\C)C[C@H](C)C[C@H](OC)[C@H]2O[C@@](O)(C(=O)C(=O)N3CCCC[C@H]3C(=O)O[C@H](/C(C)=C/[C@@H]3CC[C@H](Cl)[C@H](OC)C3)[C@H](C)[C@@H](O)CC1=O)[C@H](C)C[C@@H]2OC` ?
Ans. 0.17
